All figures here come from patent US12552770B2.

- measurement-target: human TMEM16A (TMEM16Aabc variant) (Homo sapiens, UniProt Q5XXA6, DEL476-501)
- procedure-summary: Automated whole-cell patch clamp (Qpatch) TMEM16A potentiator assay in recombinant cells
- Assay type: cell-based
- experimental-setup: 3.33 μM solution of test compound; percentage increase of baseline TMEM16A current; FRT cells stably expressing human TMEM16A; peak current at +70 mV; intracellular calcium at EC20
% Potentiation @ 3.33 μM Avg: recorded values
Provide only the numeric value, understood in %.

molecule | readout-name | value-reported
O=C(CC1C2CC3CC(C2)CC1C3)Nc1ccc2[nH]c(CCc3ccccc3)nc2c1 (centres unmarked) | % Potentiation @ 3.33 μM Avg | 149.1
CC(C)(O)c1cc(F)c(Cc2nc3cc(C(=O)NC4(C(F)(F)F)CC4)ccc3[nH]2)cc1O | % Potentiation @ 3.33 μM Avg | 108

Reported % Potentiation @ 3.33 μM Avg for O=C(CC1C2CC3CC(C2)CC1C3)Nc1ccc2[nH]c(Cc3ccccc3O)nc2c1 (centres unmarked) : what is it?
156.9

What value of % Potentiation @ 3.33 μM Avg has been reported for the following molecule? CC(C)c1nc2cc(NC(=O)CC3CCCCC3)ccc2o1
44.6

----------
- measurement-target: human TMEM16A (TMEM16Aabc variant) (Homo sapiens, UniProt Q5XXA6, DEL476-501)
- procedure-summary: Automated whole-cell patch clamp (Qpatch) TMEM16A potentiator assay in recombinant cells
- Assay type: cell-based
- experimental-setup: 3.33 μM solution of test compound; percentage increase of baseline TMEM16A current; FRT cells stably expressing human TMEM16A; peak current at +70 mV; intracellular calcium at EC20
readout-name: % Potentiation @ 3.33 μM Avg (%)
Please reply with the bare figure in % and do not write the unit itself.

Here are 5 molecules together with their reported answers.
molecule | % Potentiation @ 3.33 μM Avg [%]
O=C(NCC1CCCCCC1)c1ccc2[nH]c(Cc3ccc(F)cc3O)nc2c1 | 120
O=C(NCC1CCCCCC1)c1ccc2[nH]c(Cc3cc(F)ccc3O)nc2c1 | 142
CC1(c2nc3ccc(C(=O)NCC4CCCCCC4)cc3[nH]2)CCC1 | 82
CC(C)(O)c1cc(F)c(CC(=O)Nc2ccc3[nH]c(C4(C(F)(F)F)CC4)nc3c2)cc1O | 149
Cc1noc(C)c1-c1cccc(Cc2nc3ccc(NC(=O)CC45CC6CC(CC(C6)C4)C5)cc3[nH]2)c1 | 136.5

// query % Potentiation @ 3.33 μM Avg value for entry COc1ccccc1Cc1nc2cc(NC(=O)CC3C4CC5CC(C4)CC3C5)ccc2[nH]1 (stereo not shown)
211.2

Which % Potentiation @ 3.33 μM Avg value belongs to CC(C)(CO)c1cc(F)c(Cc2nc3cc(C(=O)NCC4(C(F)(F)F)CC4)ccc3[nH]2)cc1O ?
183

----------
Form field: % Potentiation @ 3.33 μM Avg (one value per entry).
- measurement-target: human TMEM16A (TMEM16Aabc variant) (Homo sapiens, UniProt Q5XXA6, DEL476-501)
- Sequence (Q5XXA6 with tags, fused parts or gaps isoform Q5XXA6-5 DEL539-564): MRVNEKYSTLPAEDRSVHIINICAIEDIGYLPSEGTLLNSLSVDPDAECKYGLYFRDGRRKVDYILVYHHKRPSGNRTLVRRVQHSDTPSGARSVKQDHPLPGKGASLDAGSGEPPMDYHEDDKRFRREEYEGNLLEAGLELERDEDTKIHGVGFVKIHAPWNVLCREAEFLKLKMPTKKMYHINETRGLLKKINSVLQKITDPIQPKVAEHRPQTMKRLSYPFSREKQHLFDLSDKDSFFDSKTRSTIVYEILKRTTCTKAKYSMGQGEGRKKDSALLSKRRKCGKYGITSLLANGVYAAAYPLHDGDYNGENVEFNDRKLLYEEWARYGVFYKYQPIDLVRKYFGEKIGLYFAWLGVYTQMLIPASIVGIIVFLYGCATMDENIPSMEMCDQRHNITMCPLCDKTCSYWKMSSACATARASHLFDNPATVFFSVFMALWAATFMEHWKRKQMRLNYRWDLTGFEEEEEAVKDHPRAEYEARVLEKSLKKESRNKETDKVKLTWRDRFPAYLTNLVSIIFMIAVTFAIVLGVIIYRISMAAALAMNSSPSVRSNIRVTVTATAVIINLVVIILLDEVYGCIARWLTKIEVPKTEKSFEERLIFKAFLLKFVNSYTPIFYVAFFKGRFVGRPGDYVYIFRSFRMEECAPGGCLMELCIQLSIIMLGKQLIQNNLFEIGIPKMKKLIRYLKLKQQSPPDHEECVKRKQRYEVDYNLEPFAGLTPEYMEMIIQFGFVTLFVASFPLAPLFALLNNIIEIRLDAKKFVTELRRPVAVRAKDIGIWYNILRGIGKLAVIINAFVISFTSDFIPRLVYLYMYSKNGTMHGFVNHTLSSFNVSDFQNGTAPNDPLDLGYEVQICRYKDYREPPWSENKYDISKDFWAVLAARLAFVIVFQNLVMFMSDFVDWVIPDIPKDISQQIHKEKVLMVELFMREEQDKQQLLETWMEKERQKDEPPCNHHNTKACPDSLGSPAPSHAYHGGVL
- procedure-summary: Automated whole-cell patch clamp (Qpatch) TMEM16A potentiator assay in recombinant cells
- Format: cell-based
- experimental-setup: 3.33 μM solution of test compound; percentage increase of baseline TMEM16A current; FRT cells stably expressing human TMEM16A; peak current at +70 mV; intracellular calcium at EC20
Quick note: give the figure in %, leave out the unit.

Use the examples below as a reference point.
molecule | value-reported
Cc1c2ccc(NC(=O)CC34CC5CC(CC(C5)C3)C4)cc2nn1Cc1ccccc1 | 118.3
CC(C)(C)c1cc(F)c(CC(=O)Nc2ccc3[nH]c(C4(C(F)(F)F)CC4)nc3c2)cc1O | 153
CC(C)(C)c1cc(F)c(Cc2nc3cc(C(=O)NCCC(F)(F)F)ccc3[nH]2)cc1O | 272
Nc1c2ccc(NC(=O)CC34CC5CC(CC(C5)C3)C4)cc2nn1Cc1ccccc1O | 122.7
CC(C)(C)c1nc2cc(NC(=O)Cc3cc(Cl)ccc3O)ccc2[nH]1 [Example 27] | 96
O=C(CC12CC3CC(CC(C3)C1)C2)Nc1ccc2cn(Cc3ccccc3)nc2c1 | 137.3
O=C(CC12CC3CC(CC(C3)C1)C2)Nc1cc2nc(Cc3ccccc3)[nH]c2cn1 | 59.4
CN[C@H](c1ccccc1)c1nc2cc(NC(=O)CC3C4CC5CC(C4)CC3C5)ccc2[nH]1 (stereo partly drawn) | 108.2

Could you now consider this next molecule?
Field request: % Potentiation @ 3.33 μM Avg | item: O=C(NCC1CCCCCC1)c1ccc2oc(Cc3ccccc3O)nc2c1
67.7
